These entries and their values trace back to BindingDB's records for doi:10.1007/s10822-022-00478-x.

target: cAMP and cAMP-inhibited cGMP 3',5'-cyclic phosphodiesterase 10A (Homo sapiens)
Sequence (Q9Y233 as listed by the source): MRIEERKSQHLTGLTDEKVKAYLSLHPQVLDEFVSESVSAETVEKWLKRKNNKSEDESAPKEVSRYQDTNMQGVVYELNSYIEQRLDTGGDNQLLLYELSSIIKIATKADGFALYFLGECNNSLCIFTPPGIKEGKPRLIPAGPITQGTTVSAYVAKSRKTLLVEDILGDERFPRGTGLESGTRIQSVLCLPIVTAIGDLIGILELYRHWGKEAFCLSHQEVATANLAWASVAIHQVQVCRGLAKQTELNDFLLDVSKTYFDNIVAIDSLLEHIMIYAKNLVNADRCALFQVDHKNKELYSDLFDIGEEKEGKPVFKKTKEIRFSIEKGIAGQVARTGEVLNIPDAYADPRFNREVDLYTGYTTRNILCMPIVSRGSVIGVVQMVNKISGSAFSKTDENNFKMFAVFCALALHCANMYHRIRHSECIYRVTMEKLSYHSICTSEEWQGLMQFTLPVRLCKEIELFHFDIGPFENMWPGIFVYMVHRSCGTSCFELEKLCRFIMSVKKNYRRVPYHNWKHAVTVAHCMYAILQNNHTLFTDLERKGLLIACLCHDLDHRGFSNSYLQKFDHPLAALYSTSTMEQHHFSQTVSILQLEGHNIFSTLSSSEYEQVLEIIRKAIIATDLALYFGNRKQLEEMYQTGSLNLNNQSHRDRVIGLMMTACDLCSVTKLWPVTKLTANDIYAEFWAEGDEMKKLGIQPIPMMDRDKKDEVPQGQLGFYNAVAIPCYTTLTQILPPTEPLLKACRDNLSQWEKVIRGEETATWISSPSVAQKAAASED
Parameter: IC50. Scope: all listed entries.
I only need the number, in µM, no unit after it.

Solved cases (2 shown):
compound="COc1ccc(Cl)cc1C(=O)Nc1cc(-c2ccccn2)nn1C [Roche-Dataset for PDE10A, Compound 608]" quantity_unit=µM numeric_readout=1.38
compound="CC(C)c1nc2cc(NC(=O)c3c(C(=O)O)cnn3C)ccn2n1 [Roche-Dataset for PDE10A, Compound 848]" quantity_unit=µM numeric_readout=1.23

Exam item: Check cAMP and cAMP-inhibited cGMP 3',5'-cyclic phosphodiesterase 10A (Homo sapiens) data and give IC50 for CCOC(=O)c1cc(NC(=O)c2c(C(=O)N3CCC3)cnn2C)nn1C [Roche-Dataset for PDE10A, Compound 959] .
Marked response: 1.34
